# SYSTEM_NAME: Human MAT2A (Homo sapiens, UniProt P31153)
# Construct: Human MAT2A: Cepter, amino acids 1-395; purchased Cepter clone ID 329, lot 00023-123; clone ID 334, lot 00023-148
# Sequence (P31153 whole entry, the tested form may be a part): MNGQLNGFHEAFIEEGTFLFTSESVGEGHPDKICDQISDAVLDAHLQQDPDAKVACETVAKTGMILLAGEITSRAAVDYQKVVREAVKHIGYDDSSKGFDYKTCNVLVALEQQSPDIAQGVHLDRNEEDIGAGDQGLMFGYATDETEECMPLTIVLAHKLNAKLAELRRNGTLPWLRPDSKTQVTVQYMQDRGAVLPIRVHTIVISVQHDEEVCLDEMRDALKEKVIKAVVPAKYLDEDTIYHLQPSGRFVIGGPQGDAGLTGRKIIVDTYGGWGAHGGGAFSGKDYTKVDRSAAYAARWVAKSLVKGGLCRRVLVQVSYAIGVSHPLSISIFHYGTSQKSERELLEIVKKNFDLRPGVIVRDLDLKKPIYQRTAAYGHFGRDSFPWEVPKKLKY
# ASSAY_METHOD_TEXT: Phosphate Sensor Fluorescence Assay (Biologic Example A)
# Assay type: biochemical
# PARTICULARS: MAT2A enzyme inhibition, Biological Example A; 500 uM L-methionine, 500 uM ATP; given as bound

>  <MOLECULE>
Cn1c(=O)cc(-c2ccccc2)c2cc(Cl)ccc21 [Compound 1.001]

>  <IC50>
> 10 µM

$$$$

====

# SYSTEM_NAME: Human MAT2A (Homo sapiens)
# Construct: Human MAT2A: Cepter, amino acids 1-395; purchased Cepter clone ID 329, lot 00023-123; clone ID 334, lot 00023-148
# ASSAY_METHOD_TEXT: Phosphate Sensor Fluorescence Assay (Biologic Example A)
# Type: biochemical
# PARTICULARS: MAT2A enzyme inhibition, Biological Example A; 500 uM L-methionine, 500 uM ATP; class symbols
pIC50: −log10 of the molar value.

>  <MOLECULE>
O=c1[nH]c2ccc(Cl)cc2c(-c2ccccc2)c1Sc1ncnc2sccc12 [Compound 1.006]

>  <pIC50>
5.00 to 6.00

$$$$
>  <MOLECULE>
CN(C)c1c(-c2ccccc2)c2cc(Cl)ccc2[nH]c1=O [Compound 1.008]

>  <pIC50>
5.00 to 6.00

$$$$
>  <MOLECULE>
COc1c(-c2ccccc2)c2cc(C3CC3)ccc2[nH]c1=O [Compound 1.011]

>  <pIC50>
6.70 to 8.00

$$$$
>  <MOLECULE>
CS(=O)(=O)c1c(-c2ccccc2)c2cc(Cl)ccc2[nH]c1=O [Compound 1.005]

>  <pIC50>
5.00 to 6.00

$$$$
>  <MOLECULE>
COc1c(-c2ccccc2)c2cc(C(F)(F)F)ccc2[nH]c1=O [Compound 1.019]

>  <pIC50>
6.70 to 8.00

$$$$
>  <MOLECULE>
COc1c(-c2cccnc2)c2cc(Cl)ccc2[nH]c1=O [Compound 1.012]

>  <pIC50>
6.30 to 6.70

$$$$
>  <MOLECULE>
O=c1[nH]c2ccc(Cl)cc2c(-c2ccccc2Cl)c1O [Compound 1.021]

>  <pIC50>
6.70 to 8.00

$$$$
>  <MOLECULE>
O=c1[nH]c2ccc(Cl)cc2c(-c2ccccc2)c1O [Compound 1.010]

>  <pIC50>
6.70 to 8.00

$$$$
>  <MOLECULE>
O=c1[nH]c2ccccc2c(-c2ccccc2)c1Sc1ncnc2sccc12 [Compound 1.002]

>  <pIC50>
6.00 to 6.30

$$$$
